Test system: VchCAST RNA-guided transposition machinery (E. coli BL21(DE3) host, lacZ target)
assay name: relative integration efficiency (T-LR orientation) vs wild-type transposon end (log2 (normalized fold change)); transposon end mutated: right end (5 bp flank + 75 bp right end); higher = more efficient transposition
Let's look at some sequences and their measured relative integration efficiency (log2).

sequence input	relative integration efficiency (log2)
ACATTTGTTGATACAACCCTAAAATGATAATTACACCCATAAATTCATAATTATCACACCCAATTTAACTATAACGCTCTGATCATAGTCAGACCAACATTGCTACGACCCGTATTCGCACCGACAC	-1.75
ACATTTGTTGATACAACCATAAAATGATAATTACACCCATAAATTGATAATTATCACACAACGAAATTGATATTGCCTCTGATCATAGTCAGACCAACATTGCTACGACCCGTATTCGCACCGACAC	2.18
ACATTTGTTGATACAACCATATATTGATATCTCCAACCATAAGTTGATATTTTTCACAACCATATATTGATATCTCCTCTGATCATAGTCAGACCAACATTGCTACGACCCGTATTCGCACCGACAC	0.0875
ACATTTGTGTATACAACCATAAAATGATAATTACACCCATAAATTGATAATTATCACACCCATAAATTGATATTGCCTCTGATCATAGTCAGACCAACATTGCTACGACCCGTATTCGCACCGACAC	-0.811
ACATTTGTTGATAAAACCATAAAATGATTATTACACCCATAAATTGATAATTATCACACCCATAAATTGATATTGCCTCTGATCATAGTCAGACCAACATTGCTACGACCCGTATTCGCACCGACAC	-0.755
ACATTTGTTGATACAACCATAAAAGGATCATTCACCCATAAATTGATAATTATCACACCCACATTTAACTATAACGCTCTGATCATAGTCAGACCAACATTGCTACGACCCGTATTCGCACCGACAC	-0.0129
ACATTTGTTGATACAACCATAAAATGATAATTACACCCATAAATTGATAATTATCACACCCATAAATTGATATTGCCTCTGATCATCAACCATAAAATGATAATTAAGTCAGACCAAGCACCGACAC	0.201
ACATTTGTTGATACAACCATAAAATGATAATTACCCCCATCAATTGATAATTATCACACCCAATTTAACTATAACGCTCTGATCATAGTCAGACCAACATTGCTACGACCCGTATTCGCACCGACAC	0.506
ACATTTGTGGATACAACCCTAAAATGATAATTACACCCATAAATTCATCATTATCACACCCAATTTAACTATAACGCTCTGATCATAGTCAGACCAACATTGCTACGACCCGTATTCGCACCGACAC	-1.67
ACATTTGTTGATACAACCATAAAATGATAATTACACCCCGAAATTGATAATTATCACACCCATAAATTGATATTGCCTCTGATCATAGTCAGACCAACATTGCTACGACCCGTATTCGCACCGACAC	-2.51
ACATTTGTTGATACAACCATCAAATGGTAATTCCACCCATAAATTGATAATTATCACACCCAATTTAACTATAACGCTCTGATCATAGTCAGACCAACATTGCTACGACCCGTATTCGCACCGACAC	0.505
ACATTTGTTGATACAACCATATATTGATATCTCCACCCATAAATTGATATTGCTCACACCCATAAATTGATAATTACTCTGATCATAGTCAGACCAACATTGCTACGACCCGTATTCGCACCGACAC	0.429
ACATTTGTTTATACAACCATAAAATGATAATTACACCCATAAATGGATAATTATCACACCCAATTTAACTATAACGCTCTGATCATAGTCAGACCAACATTGCTACGACCCGTATTCGCACCGACAC	-0.232
ACATTTGTTGATACAACCATAAAATGATAATTACACCCATAAATTGATAATTATCACACCCATAAATTGATATTGCCTCTGATCATAGTCAATGTGATAACAATCACAGAAGACCAAGCACCGACAC	-0.0829
ACATTTGTTGATACAACCATAAAATGATCCGGCCACCCATAAATTGATCCGGCTCACACCCATAAATTGATCGGTACTCTGATCATAGTCAGACCAACATTGCTACGACCCGTATTCGCACCGACAC	-0.827
ACATTTGTTGATACACCCATAAATTGATATTGCCACCCATAAATTGATATTGCTCACAACCATAAAGTGATATTTACTCTGATCATAGTCAGACCAACATTGCTACGACCCGTATTCGCACCGACAC	0.0649
ACATTTGTTGATACAACCATATAATGATAATAACACCCCTAAAATGATAATTATCACACCCAATTTAACTATAACGCTCTGATCATAGTCAGACCAACATTGCTACGACCCGTATTCGCACCGACAC	0.598
ACATTTGCTGATAGAACCATTTAATGATAATAACACCAATAAAATGATAATTATCACACCCAATTTAACTATAACGCTCTGATCATAGTCAGACCAACATTGCTACGACCCGTATTCGCACCGACAC	-2.93
ACATTTGTTGATACACCCATAAATTGATAATTACAACCATAAGTTGATATTTTTCACAACCATAAAGTGATATTTACTCTGATCATAGTCAGACCAACATTGCTACGACCCGTATTCGCACCGACAC	-0.228
ACATTTGTTGATACAAAACGAAAATGATAATTACACCCATAAATTGATAATTATCACACCCATAAATTGATATTGCCTCTGATCATAGTCAGACCAACATTGCTACGACCCGTATTCGCACCGACAC	-6.65

* * *

The following sequences are shown together with reported relative integration efficiency (log2) values.
Tested on: VchCAST RNA-guided transposition machinery (E. coli BL21(DE3) host, lacZ target)
assay name: relative integration efficiency (T-RL orientation) vs wild-type transposon end (log2 (normalized fold change)); transposon end mutated: left end; higher = more efficient transposition

sequence input	relative integration efficiency (log2)
AATGTTGTTGATGCAACCATAAAGTGATATTTAATAATTATTTATAATCAGCAACTTAACCACAAAATGTGAATCGACAACCATATATTGATATCTCACAAAACAACCATAAGTTGATATTTTGTATTTCAGCAAAACTACTGCAGTAAGAA	-2.45
AATGTTGTTGATGCAACCATAAAGTGATATTTATATTCTAAATGTTGATTAATTTGAATCATCATCTCAACCATATATTGATATCTCACAAAACAACCATAAGTTGATATTTTTGTGAATCGAGTATTTCAGCAAAACTACTGCAGTAAGAA	-5.04
AATGTTGTTGATGCAACCATAAGTTGATATTTTATAATTATTTATAATCAGCAACTTAACCACAAAACAACCATATATTGATATCTCACAAAAGTTGGTATTCAACTATAAAATGTGAATCGAGTATTTCAGCAAAACTACTGCAGTAAGAA	-2.64
AATGTTGTTGATGCAACCATAAAGTGATATTTAATAATTATTTATAATCAGCAACTTAACCACAAAACAACCATAGCGGTCGCGAGACACCCCACCAACGCCTGGTCGCGGGGGTGTCCGATCTGATTTCAGCAAAACTACTGCAGTAAGAA	-6.21

* * *

System: VchCAST RNA-guided transposition machinery (E. coli BL21(DE3) host, lacZ target)
assay name: relative integration efficiency (T-RL orientation) vs wild-type transposon end (log2 (normalized fold change)); transposon end mutated: left end; higher = more efficient transposition
// reported relative integration efficiency (log2) for each item listed
reported metric: relative integration efficiency (log2)

sequence input	number
AATGTTGTTGATGCAACCATAAAGTGATATTTAATAATTATCAACCATATATTGATATCTCTTATAATCAGCAACTTAACCACAAAAACAAAACAACCATAAGTTGATATTTTTGTGAATCGAGTATTTCAGCAAAACTACTGCAGTAAGAA	-4.57
AATGTTGTTGATGCAACCATAAAGTGATATTTAATAATTATTTATAATCACAACCATATATTGATATCTCGCAACTTAACCACAAAAACAAAACAACCATAAGTTGATATTTTTGTGAATCGAGTATTTCAGCAAAACTACTGCAGTAAGAA	-6.71
AATGTTGTTGATGCAACCATAAAGTGATATTTAATAATTATTTATAATCAGCCAACCATATATTGATATCTCACAAAACAACCATAAGTTGATATTTTAACTTAACCACAAAATGTGAATCGAGTATTTCAGCAAAACTACTGCAGTAAGAA	-6.91
AATGTTGTTGATGCAACCATAAAGTGATATTTAATACAACCATATATTGATATCTCATTATTTATAATCAGCAACTTAACCACAAAAACAAAACAACCATAAGTTGATATTTTTGTGAATCGAGTATTTCAGCAAAACTACTGCAGTAAGAA	-4.61
